Reported IC50 on Galectin-3 (Homo sapiens, UniProt P17931) for assorted compounds, compiled from publications.

Consider the worked cases shown below.
Compound	IC50
CNC(=O)[C@@H](OCc1cccnc1)[C@@H]1OC(CO)[C@H](O)C(n2cc(-c3cc(F)c(F)c(F)c3)nn2)C1O (stereo partly drawn)	850 nM
CO[C@@H]1[C@@H](n2cc(-c3ccc(Br)c(F)c3)nn2)[C@@H](O)[C@@H](CO)O[C@H]1C(=O)N(c1cc(Cl)cc(Cl)c1)[C@H]1CCCC[C@@H]1O	18 nM
CCOC(=O)N1CCC(c2cc(C[C@H]3O[C@H](CO)[C@H](O)[C@H](n4cc(-c5cc(F)c(F)c(F)c5)nn4)[C@H]3O)no2)CC1	68 nM
CC(C)(C)OC(=O)N1CCC(C2=NOC(C[C@H]3O[C@H](CO)[C@H](O)[C@H](n4cc(-c5ccc(C(F)(F)F)c(F)c5)nn4)[C@H]3O)C2)CC1 (stereo partly drawn)	450 nM
CC(=O)O[C@@H]1[C@@H](n2cc(-c3cc(F)c(F)c(F)c3)nn2)[C@@H](O)[C@@H](CO)O[C@H]1C(=O)N(Cc1ccccc1C(F)(F)F)[C@H]1CCCC[C@@H]1O	31 nM

Task: Given the entry COc1cc(-c2cn([C@H]3[C@@H](O)[C@@H](CO)O[C@H](CC4CC(C5CCN(C(=O)OC(C)(C)C)CC5)=NO4)[C@@H]3O)nn2)ccc1Cl (stereo partly drawn) , report its measured IC50.
Result: 250 nM

====

Reported IC50 on Galectin-3 (Homo sapiens, UniProt P17931) for assorted compounds, compiled from publications.
In plain terms, low IC50, meaning strictly below 100 nM, gives t, and everything else gives f.

Compound	Tested System	Qualitative Label
CO[C@@H]1[C@@H](n2cc(-c3cc(F)c(C)c(F)c3)nn2)[C@@H](O)[C@@H](CO)O[C@H]1C(=O)N(c1cc(Br)cc(C#N)c1)[C@H]1CCC[C@@H]1O	Galectin-3 (Homo sapiens, UniProt P17931)	t
CC(C)NC(=O)[C@@H](OCc1ccc(Br)cc1)[C@@H]1OC(CO)[C@H](O)C(n2cc(-c3cc(F)c(F)c(F)c3)nn2)C1O (stereo partly shown)	Galectin-3 (Homo sapiens, UniProt P17931)	f
CO[C@@H]1[C@@H](n2cc(-c3ccc(C)c(F)c3F)nn2)[C@@H](O)[C@@H](CO)O[C@@H]1Cc1cc(C2CCC(=O)N(C)CC2)no1 (stereo partly shown)	Galectin-3 (Homo sapiens, UniProt P17931)	t
CO[C@@H]1[C@@H](n2cc(-c3cc(F)c(Cl)c(F)c3)nn2)[C@@H](O)[C@@H](CO)O[C@H]1C(=O)N(c1cc(Br)cc(C#N)c1)[C@@H]1CC[C@H]1O	Galectin-3 (Homo sapiens, UniProt P17931)	f
COc1cccc(N(C(=O)[C@@H]2O[C@H](CO)[C@H](O)[C@H](n3cc(-c4cc(F)cc(F)c4)nn3)[C@H]2OC)[C@H]2CCCC[C@@H]2O)c1	Galectin-3 (Homo sapiens, UniProt P17931)	t

Task: Is the reported IC50 for CO[C@@H]1[C@@H](n2cc(-c3cc(F)c(F)c(F)c3)nn2)[C@@H](O)[C@@H](CO)O[C@@H]1Cc1cc(C2CCN(C(=O)OC(C)(C)C)C2)on1 (stereo partly shown) strictly below 100 nM?
Result: f

====

Reported log10(IC50) on Galectin-3 (Homo sapiens, UniProt P17931) for assorted compounds, compiled from publications.
The base-10 logarithm of IC50, taken with IC50 in µM, is what appears here.

In [3]: df
Out[3]:
                                   compound  value_measured
0  CO[C@@H]1[C@@H](n2cc(-c3cc(F)c(F)c(F)c3)nn2)[C@@H](O)[C@@H](CO)O[C@H]1C(=O)N(Cc1cccc(Cl)c1)[C@H]1CCCC[C@@H]1O           -0.06
1  CO[C@@H]1[C@@H](n2cc(-c3cc(F)c(F)c(F)c3)nn2)[C@@H](O)[C@@H](CO)O[C@@H]1Cc1cc(C2CCN(C)C(=O)C2)no1 (stereo partly drawn)           -0.59
2  CNC(=O)[C@@H](OCc1ccccc1)[C@@H]1OC(CO)[C@H](O)C(n2cc(-c3cc(F)c(F)c(F)c3)nn2)C1O (stereo partly drawn)            0.59
3  CO[C@@H]1[C@@H](n2cc(-c3ccc(Br)c(F)c3F)nn2)[C@@H](O)[C@@H](CO)O[C@@H]1Cc1cc(C2CCCCC2)on1           -0.36
4  CO[C@@H]1[C@@H](n2cc(-c3cc(F)c(F)c(F)c3)nn2)[C@@H](O)[C@@H](CO)O[C@@H]1Cc1cc(C)no1            0.09

Now for another entry.
Task: Given the entry CO[C@@H]1[C@@H](n2cc(-c3cc(F)c(F)c(F)c3)nn2)[C@@H](O)[C@@H](CO)O[C@H]1C(=O)N(c1cccc(Br)c1)[C@H]1CCC[C@@H]1O , report its measured log10(IC50).
Result: -1.10

====

Reported IC50 on Galectin-3 (Homo sapiens) for assorted compounds, compiled from publications.
Give bare numbers, in nM.

Consider the worked cases shown below.
In [3]: df
Out[3]:
                                   compound  value_unit  value_measured
0  CO[C@@H]1[C@@H](n2cc(-c3ccc(Cl)c(F)c3F)nn2)[C@@H](O)[C@@H](CO)O[C@@H]1Cc1cc(C2(C)CC2)no1          nM              33
1  OC[C@H]1O[C@H](Cc2cc(C3(O)CCCC3)on2)[C@H](O)[C@@H](n2cc(-c3cc(F)c(F)c(F)c3)nn2)[C@H]1O          nM             490
2  COc1cc(C#N)cc(N(C(=O)[C@@H]2O[C@H](CO)[C@H](O)[C@H](n3cc(-c4cc(F)cc(Cl)c4)nn3)[C@H]2OC)[C@H]2CCCC[C@@H]2O)c1          nM              56
3  CO[C@@H]1[C@@H](n2cc(-c3ccc(C)c(F)c3F)nn2)[C@@H](O)[C@@H](CO)O[C@@H]1CC1=NO[C@]2(CC[C@H](NC(C)=O)CC2)C1          nM              71
4  CO[C@@H]1[C@@H](n2cc(-c3cc(F)c(F)c(F)c3)nn2)[C@@H](O)[C@@H](CO)O[C@@H]1Cc1cc(C2(O)CCCC2)on1          nM             360

Now for another entry.
Task: Request: IC50, test system Galectin-3 (Homo sapiens), entry CO[C@@H]1[C@@H](n2cc(-c3cc(F)c(F)c(F)c3)nn2)[C@@H](O)[C@@H](CO)O[C@@H]1CC1CC(C2CCOCC2)=NO1 (stereo partly drawn)
Result: 530

====

Reported log10 IC50 on Galectin-3 (Homo sapiens, UniProt P17931) for assorted compounds, compiled from publications.
The base-10 logarithm of IC50, taken with IC50 in nM, is what appears here.

                                   compound  property_measured  value_measured
0  O=c1[nH]c2ccc(C3=NO[C@@H](C[C@H]4O[C@H](CO)[C@H](O)[C@H](n5cc(-c6cc(F)c(F)c(F)c6)nn5)[C@H]4O)C3)cc2o1         log10 IC50            3.05
1  CO[C@@H]1[C@@H](n2cc(-c3cc(F)c(F)c(F)c3)nn2)[C@@H](O)[C@@H](CO)O[C@H]1C(=O)N(c1cc(C)cc(Br)c1)[C@H]1CCC[C@@H]1O         log10 IC50            1.54
2  CO[C@@H]1[C@@H](n2cc(-c3cc(F)c(F)c(F)c3)nn2)[C@@H](O)[C@@H](CO)O[C@@H]1CC1=NO[C@]2(CC[C@H](NC3CC3)CC2)C1         log10 IC50            2.15
3  COc1cccc(N(C(=O)[C@@H]2O[C@H](CO)[C@H](O)[C@H](n3cc(-c4cc(F)c(F)c(F)c4)nn3)[C@H]2OC)[C@H]2CCCC[C@@H]2O)c1         log10 IC50            1.56
4  CO[C@@H]1[C@@H](n2cc(-c3cc(F)cc(Br)c3)nn2)[C@@H](O)[C@@H](CO)O[C@H]1C(=O)N(c1cc(Cl)cc(Cl)c1)[C@H]1CCCC[C@@H]1O         log10 IC50            1.79
5  CO[C@@H]1[C@@H](n2cc(-c3cc(F)c(F)c(F)c3)nn2)[C@@H](O)[C@@H](CO)O[C@@H]1Cc1cc(C2CCC(F)(F)CC2)sn1         log10 IC50            2.75

I need log10 IC50 for every entry listed below, if you could help.
1. CO[C@@H]1[C@@H](n2cc(-c3cc(F)c(Br)c(F)c3)nn2)[C@@H](O)[C@@H](CO)O[C@H]1C(=O)N(c1cc(F)cc(C#N)c1)[C@@H]1CC[C@H]1O
2. CO[C@@H]1[C@@H](n2cc(-c3cc(F)c(Br)c(F)c3)nn2)[C@@H](O)[C@@H](CO)O[C@H]1C(=O)N(c1cc(F)cc(C#N)c1)[C@H]1CC[C@@H]1O
3. OC[C@H]1O[C@H](CC2CC(c3ccc4cn[nH]c4c3)=NO2)[C@H](O)[C@@H](n2cc(-c3cc(F)c(F)c(F)c3)nn2)[C@H]1O (some centres unmarked)
4. CO[C@@H]1[C@@H](n2cc(-c3ccc(Br)cc3)nn2)[C@@H](O)[C@@H](CO)O[C@H]1C(=O)N(c1cc(Cl)cc(C#N)c1)[C@H]1CCCC[C@@H]1O
5. CO[C@@H]1[C@@H](n2cc(-c3cc(F)c(F)c(F)c3)nn2)[C@@H](O)[C@@H](CO)O[C@@H]1Cc1cn(C2CCN(C(=O)OC(C)(C)C)CC2)nn1

Result:
[2.56, 2.26, 2.90, 1.32, 1.54]
